Source of measurements: PubChem BioAssay (NCATS)

procedure.details: Nrf2 qHTS screen for inhibitors: Validation (AID 493153)
condition.set: A549 ARE-Fluc reporter, 18-24 h; measured here: cytotoxicity max response
Results filed as inconclusive are left out.
Listed here are compounds together with their documented viability change.
// units = %; emit number, no label

Example results:
compound: CCN(CC)C(=O)c1ccc(O)c(OC)c1
assay.metric: viability change
measurement.unit: %
assay.result: 8.03
//
compound: COc1ccccc1N1CCN(CCCNc2cc(=O)n(C)c(=O)n2C)CC1
assay.metric: viability change
measurement.unit: %
assay.result: -8.38
//
compound: CCCCC1C(=O)N(c2ccccc2)N(c2ccccc2)C1=O
assay.metric: viability change
measurement.unit: %
assay.result: -3.3

# input Query (compound): Cc1cccc(C)c1OCC(C)N (configuration not stated) ; field requested: viability change
# output -6.18

# input Query (compound): `CCN(CC)CCOC(=O)c1ccc(N)cc1` ; field requested: viability change
# output 0.523

# input Query (compound): `CC(C)OC(=O)C(C)(C)Oc1ccc(C(=O)c2ccc(Cl)cc2)cc1` ; field requested: viability change
# output 3.23

# input Query (compound): `Clc1ccc(Cn2c(CN3CCCC3)nc3ccccc32)cc1` ; field requested: viability change
# output 1.98

###

Test system: HaCat
procedure.details: Cytotoxic Profiling of Annotated Libraries Using Quantitative High-Throughput Screening (AID 1296008); note: nearly all actives have a fitted effect of over 60% in size
condition.set: Five cell lines viability, CellTiter-Glo ATP luminescence, 48-72 h
Inconclusive results are not listed. The source made the active and inactive calls. The call rests on the fitted dose curve; in most records, active means well fitted inhibition curve with a large enough effect; inconclusive means small, poorly fitted or top-dose-only effect; inactive means flat fitted curve, though single readings scatter.
Respond using exactly one of the listed classes: active, inactive

Examples from the recorded data:
structure: CN(C)C1CCN(C(=O)c2ccc(NC(=O)Nc3nc(N4CCOCC4)nc(N4CCOCC4)n3)cc2)CC1
answer.label: active

structure: O=c1ccn([C@@H]2O[C@H](CO)[C@H](O)[C@H]2O)c(=O)[nH]1
answer.label: inactive

structure: O=C(O)c1ccc(-c2c[nH]c3ncc(-c4ccccc4)cc23)cc1C1CCCC1
answer.label: inactive

Kindly consider the entry below.
# input Just curious, what result did `N[C@H](CSC(c1ccccc1)(c1ccccc1)c1ccccc1)C(=O)O` get here?
# output inactive

###

procedure.details: qHTS for identification of novel therapeutic agents for treatment of microphthalmiaassociated transcription factor (MiT) renal cell carcinoma (RCC) (AID 1963991);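 note: curves scaled with 100% = DMSO viability and 0% = empty wells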
condition.set: TFE3-RCC viability, CellTiter-Glo, 48 h; measured here: UOK145 Z-AUC; stronger effect = lower value
Inconclusive results are not listed.
assay.metric: z-score
Number only, no unit.

Example results:
molecule: CC(C)n1nc(-c2ccc3oc(N)nc3c2)c2c(N)ncnc21
z-score: -3.7
--
molecule: CO[C@H]1C[C@@H]2CC[C@@H](C)[C@@](O)(O2)C(=O)C(=O)N2CCCC[C@@H]2C(=O)O[C@H]([C@@H](C)C[C@@H]2CC[C@H](O)[C@H](OC)C2)CC(=O)[C@H](C)C=C(C)[C@@H](O)[C@@H](OC)C(=O)[C@H](C)C[C@H](C)C=CC=CC=C1C
z-score: -0.61
--
molecule: CC(C)(C)OC(=O)N[C@H]1CCCCCC=C[C@@H]2C[C@@]2(C(=O)NS(=O)(=O)C2CC2)NC(=O)[C@@H]2C[C@@H](OC(=O)N3Cc4cccc(F)c4C3)CN2C1=O
z-score: 2.04
--
molecule: O=c1c(-c2ccc(O)cc2)coc2cc(O)ccc12
z-score: 0.636
--
molecule: Cc1ccccc1C(C(=O)NC1CCCCC1)N(C(=O)Cn1ccnc1C)c1cccc(F)c1 (configuration not stated)
z-score: 0.682
--
molecule: O=C(NC1CCOCC1)c1ccc(-c2cc(-c3cn[nH]c3-c3ccccn3)ccn2)cc1
z-score: 0.561

# input Query (molecule): `CC[C@H]1OC(=O)[C@H](C)[C@@H](O[C@H]2C[C@@](C)(OC)[C@@H](O)[C@H](C)O2)[C@H](C)[C@@H](O[C@@H]2O[C@H](C)C[C@H](N(C)C)[C@@H]2O)[C@](C)(O)C[C@@H](C)CN(C)[C@H](C)[C@@H](O)[C@]1(C)O` ; field requested: z-score
# output 0.923
